# assay-overview: ELISA of relative binding strength of biotin-tagged peptides to stainless steel stents
# condition-context: peptide subjected to ethylene oxide sterilization (642 mg/L for 2 hours); read-out: EC50 for binding to stainless steel after ethylene oxide sterilization
pEC50: −log10 of the molar value.
observable: pEC50

(Q) Quickly give me recorded pEC50 for SSHRTNHKKNNPKKKNKTR [SEQ ID NO:3]
(A) > 7.30

* * *

Property: pEC50; scope: individual sequences
# assay-overview: ELISA of relative binding strength of biotin-tagged peptides to stainless steel stents
# condition-context: biotin-tagged peptide, serial dilutions 0 μM to 10 μM, stainless steel stents; read-out: EC50 expressed in nanomoles
pEC50: −log10 of the molar value.

>  <sequence-input>
SGVVDAGVVAEDGVSGEASRSSHRTNHKKNNPKKKNKTR [SEQ ID NO:1]

>  <pEC50>
> 6.60

$$$$
>  <sequence-input>
SSHRTNHKKNNPKKKNKTR [SEQ ID NO:3]

>  <pEC50>
> 7.30

$$$$

# next sequence below
(Q) Supply measured pEC50 of NHTISKNHKKKNKNSNKTR [SEQ ID NO:4] in your reply.
(A) > 6.60
